tested on: OVCAR-3 ovarian; test: NCI-60 one-dose screen, 48 h; settings: 10 µM unless noted
Compounds without any hit were thinned out: in the full panel of roughly 83,000, 20% have a hit. The source made the active and inactive calls. Rule for the calls: active = growth percent below 10; inactive = the rest.
// one of yes (1) (active), no (0) (inactive), no free text

molecule	test-target	assigned-label
COc1ccccc1/C=C1\COc2ccc(-c3ccccc3)cc2C1=O	OVCAR-3 ovarian	yes (1)
COc1ccc(-c2nc(SCCC(C)C)nc(N/N=C(/C)c3ccc(C)cc3)c2C#N)cc1	OVCAR-3 ovarian	no (0)

Name the outcome recorded for COc1ccc(C(=O)c2cc3c(N)c(C(=O)Nc4cccc(OC)c4)sc3nc2C)cc1 in the assay.
yes (1)

Name the outcome recorded for Cc1c(C2=CCCCC2)c2ccccn2c1C(=O)c1cccc(S(=O)(=O)N2CCOCC2)c1 in the assay.
no (0)

Name the outcome recorded for CN(C)C(=O)OCc1nc2c(N3CCOCC3)nc(-c3ccccc3)nc2n1C in the assay.
yes (1)

Name the outcome recorded for CS(=O)(=O)OCCN(CCOS(C)(=O)=O)c1ccc(/C=N/Nc2ccc([N+](=O)[O-])cc2[N+](=O)[O-])cc1 in the assay.
no (0)

Name the outcome recorded for COc1ccc(C(O)c2cc3c(N)c(C(=O)Nc4cccc(Br)c4C)sc3nc2C)cc1 (stereo not drawn) in the assay.
yes (1)

Name the outcome recorded for COc1nc(N)nc(-n2c(-c3ccc(C)cc3)nc3ccccc32)c1NCc1ccc(C)cc1 in the assay.
no (0)
